System: Avena fatua (AVEFA)
Assay: Post-emergence herbicidal activity, glasshouse pot test
Type: in vivo
Settings: 312 h, rate 250 g/ha, evaluated after 13 days, 100=total damage to plant, 0=no damage to plant
Assignment: determine reported pest or weed control at 250 g/ha for the given molecules.
Provide the reading as a plain figure in %.

Determine its reported pest or weed control at 250 g/ha: CCc1ccc(Oc2ccc(Cl)cc2)cc1C1=C(O)C2C(C1=O)[C@H]1CC[C@@H]2CC1 (stereo partly shown)
80

Determine its reported pest or weed control at 250 g/ha: CCc1ccc(Oc2ccc(Br)cc2F)cc1C1=C(O)[C@H]2[C@H]3CC[C@H](C3)[C@H]2C1=O
70

Determine its reported pest or weed control at 250 g/ha: CCc1ccc(Oc2ccc(F)cc2)cc1C1=C(O)[C@H]2[C@H]3CC[C@H](C3)[C@H]2C1=O
0

Determine its reported pest or weed control at 250 g/ha: CCc1ccc(Oc2ncc(Cl)cc2F)cc1C1=C(O)C2C(C1=O)[C@H]1CC[C@@H]2CC1 (stereo partly shown)
100

----------
System: Avena fatua (AVEFA)
Test: Pre-emergence herbicidal activity, glasshouse pot test
Format: in vivo
Details: 312 h, rate 250 g/ha, evaluated after 13 days, 100=total damage to plant, 0=no damage to plant
Assignment: determine reported pest or weed control at 250 g/ha for the given compounds.
Provide the reading as a plain figure in %.

Determine its reported pest or weed control at 250 g/ha: CCc1ccc(Oc2ccc(Cl)cc2Cl)cc1C1=C(O)[C@H]2[C@H]3CC[C@H](C3)[C@H]2C1=O
0

Determine its reported pest or weed control at 250 g/ha: CCc1ccc(Oc2nc3c(Cl)cc(Cl)cc3s2)cc1C1=C(O)CCC1=O
0

Determine its reported pest or weed control at 250 g/ha: CCc1ccc(Oc2ccc(Br)cc2F)cc1C1=C(O)[C@H]2[C@H]3CC[C@H](C3)[C@H]2C1=O
0

Determine its reported pest or weed control at 250 g/ha: CCc1ccc(Oc2cccc(Br)c2)cc1C1=C(O)[C@H]2[C@@H](C1=O)[C@@H]1CC[C@H]2O1
30

----------
Assignment: determine reported pest or weed control at 250 g/ha for the given compounds.
System: Avena fatua (AVEFA)
Test: Pre-emergence herbicidal activity, glasshouse pot test
Format: in vivo
Details: 312 h, rate 250 g/ha, evaluated after 13 days, 100=total damage to plant, 0=no damage to plant
Provide the reading as a plain figure in %.

Determine its reported pest or weed control at 250 g/ha: CCc1ccc(Oc2cnc3ccccc3n2)cc1C1=C(O)CCC1=O
40

Determine its reported pest or weed control at 250 g/ha: CCc1ccc(Oc2ccc(Cl)cc2Cl)cc1C1=C(O)C2C(C1=O)[C@H]1CC[C@@H]2CC1 (some centres unmarked)
0

Determine its reported pest or weed control at 250 g/ha: CCc1ccc(Oc2ccc(C(F)(F)F)cc2[N+](=O)[O-])cc1C1=C(O)C2C(C1=O)[C@H]1CC[C@@H]2CC1 (some centres unmarked)
0

Determine its reported pest or weed control at 250 g/ha: O=C1CCC(O)=C1c1cc(Oc2ccc(Cl)cc2)ccc1OC(F)(F)F
0

Determine its reported pest or weed control at 250 g/ha: CCc1ccc(Oc2ccc(Br)cc2C)cc1C1=C(O)[C@H]2[C@@H](C1=O)[C@@H]1CC[C@H]2O1
30

Determine its reported pest or weed control at 250 g/ha: CCc1ccc(Oc2ccc(F)cc2)cc1C1=C(O)[C@H]2[C@H]3CC[C@H](C3)[C@H]2C1=O
0

Determine its reported pest or weed control at 250 g/ha: CCc1ccc(Oc2ccc(C(F)(F)F)cc2[N+](=O)[O-])cc1C1=C(O)CCC1=O
0

Determine its reported pest or weed control at 250 g/ha: CCc1ccc(Oc2ccccc2F)cc1C1=C(O)[C@H]2[C@@H](C1=O)[C@@H]1CC[C@H]2O1
0

Determine its reported pest or weed control at 250 g/ha: CCc1ccc(Oc2ncc(C(F)(F)F)cc2F)cc1C1=C(O)C2C(C1=O)[C@H]1CC[C@@H]2CC1 (some centres unmarked)
70

Determine its reported pest or weed control at 250 g/ha: CCc1ccc(Oc2ccc(C(F)(F)F)c(C#N)c2)cc1C1=C(O)CCC1=O
10

Determine its reported pest or weed control at 250 g/ha: CCc1ccc(Oc2cnc3ccc(Br)cc3n2)cc1C1=C(O)CCC1=O
20

Determine its reported pest or weed control at 250 g/ha: CCc1ccc(Oc2ccc(C#N)cc2)cc1C1=C(O)C2C(C1=O)[C@H]1CC[C@@H]2CC1 (some centres unmarked)
0

Determine its reported pest or weed control at 250 g/ha: CCc1ccc(Oc2ccc(Br)cc2Cl)cc1C1=C(O)C2C(C1=O)[C@H]1CC[C@@H]2CC1 (some centres unmarked)
0

Determine its reported pest or weed control at 250 g/ha: CCc1ccc(Oc2ccc(Cl)c(F)c2)cc1C1=C(O)[C@H]2[C@@H](C1=O)[C@@H]1CC[C@H]2O1
90

Determine its reported pest or weed control at 250 g/ha: CCc1ccc(Oc2ccc(F)cc2)cc1C1=C(O)[C@H]2[C@@H](C1=O)[C@@H]1CC[C@H]2O1
60

Determine its reported pest or weed control at 250 g/ha: CCc1ccc(Oc2ccc([N+](=O)[O-])c(Cl)c2)cc1C1=C(O)C2C(C1=O)[C@H]1CC[C@@H]2CC1 (some centres unmarked)
0

Determine its reported pest or weed control at 250 g/ha: CCc1ccc(Oc2ccc3cc(Cl)ccc3n2)cc1C1=C(O)C2C3CCC(CC3)C2C1=O (centres unmarked)
0

Determine its reported pest or weed control at 250 g/ha: CCc1ccc(Oc2ccc(Cl)c(F)c2)cc1C1=C(O)[C@H]2[C@H]3CC[C@H](C3)[C@H]2C1=O
0

Determine its reported pest or weed control at 250 g/ha: CCc1ccc(Oc2ccc(Cl)cc2F)cc1C1=C(O)C2C(C1=O)[C@H]1CC[C@@H]2CC1 (some centres unmarked)
0

Determine its reported pest or weed control at 250 g/ha: CCc1ccc(Oc2ccc(Br)cc2Cl)cc1C1=C(O)[C@H]2[C@@H](C1=O)[C@@H]1CC[C@H]2O1
90

Determine its reported pest or weed control at 250 g/ha: CCc1ccc(Oc2ccc(Br)cc2F)cc1C1=C(O)[C@H]2[C@@H](C1=O)[C@@H]1CC[C@H]2O1
30

Determine its reported pest or weed control at 250 g/ha: CCc1ccc(Oc2cnc3cc(Cl)ccc3n2)cc1C1=C(O)CCC1=O
50

Determine its reported pest or weed control at 250 g/ha: CCc1ccc(Oc2ncc(Cl)cc2C(F)(F)F)cc1C1=C(O)CCC1=O
70
